- System: HCT116
- assay_details: efficacy (fitted maximal change in viability relative to DMSO control); higher = less cytotoxic (negative = loss of viability)
- condition_context: 48 h
Counter-ions that a name gives are not always drawn.
Assign classes using reported efficacy values and the ranges L: < -70%; M: ≥ -70% and < -20%; H: ≥ -20%, please.

Examples with answers:
C[S+](=O)([O-])Oc1ccc2c(NC(N)=O)c(C(=O)c3ccc(Cl)cc3Cl)oc2c1 [Lirimilast]
H
C[N]1N=CC2=C1C=C(C(=C2)OC3=CC=C(NC(=O)\C4=C\C=C(\C)N(C4=O)C5=CC=C(F)C=C5)C=C3F)C6=C[NH]N=C6 [Merestinib]
M
CCCCCCCCc1ccc(CCC(N)(CO)CO)cc1 [Fingolimod hydrochloride]
L
NCCCN([C@H](CC#C)C/1=N/C2=C(C=CC(=C2)Cl)C(=O)N1NC3=CC=CC=C3)C(=O)C4=CC=CC(=C4F)Cl [ARQ-621]
L
CSc1ccc(C(=O)/C=C/c2cc(C)c(OC(C)(C)C(=O)O)c(C)c2)cc1 [Elafibranor]
L
CCCCOC(=O)N[S+](=O)([O-])c1sc(CC(C)C)cc1-c1ccc(Cn2ccnc2)cc1 [M-024]
L
CC(C)(O)[C@H]1CC[C@@](C)([C@H]2[C@@H](O)C[C@@]3(C)[C@@H]4C[C@H](O[C@@H]5O[C@H](CO)[C@@H](O)[C@H](O)[C@H]5O)[C@H]5C(C)(C)[C@@H](O[C@@H]6OC[C@@H](O)[C@H](O)[C@H]6O)CC[C@@]56C[C@@]46CC[C@]23C)O1 [Astragaloside A]
H
CCCCC[C@H](O)/C=C/[C@H]1[C@H](O)CC(=O)[C@@H]1CCCCCCC(=O)O [Alprostadil]
H

Task item: Quick check: band for COc1ccc(CC2SC(=O)NC2=O)cc1C(=O)NCc1ccc(C(F)(F)F)cc1 (centres undefined) [MK-767]
Reply: H

Task item: Quick check: band for O=C(O)CCc1ccc(NCc2cccc(Oc3ccccc3)c2)cc1 [GW-9508]
Reply: H

Task item: Quick check: band for COC1=C(NC2=NC=C(Cl)C(=N2)N[C@@H]3[C@H]\4C[C@@H](\C=C4)[C@H]3C(N)=O)C=CC5=C1CCC(CC5)N6CCOCC6 (some centres undefined)
Reply: L

Task item: Quick check: band for COc1ccc(-c2ccc3cc(C(=O)O)ccc3c2)cc1C12CC3CC(CC(C3)C1)C2 [Adapalene]
Reply: H

Task item: Quick check: band for COc1ccc(C(=O)N2CCN(c3ccc4c(c3)CCC(=O)N4)CC2)cc1OC [Vesnarinone]
Reply: M

====

- Tested on: HCT116
- assay_details: AC50 cell viability (CellTiter-Glo); higher = less potent
- condition_context: 48 h
Lab note: cut-off is 8 µM. Strictly less in AC50 cell viability is fulfilled. Exactly 8 µM or more is not fulfilled.

Task item: Does this molecule meet the criterion AC50 cell viability < 8 µM? `C=CC(=O)Nc1cccc(Oc2nc(Nc3ccc(N4CCN(C)CC4)c(F)c3)nc3[nH]ccc23)c1`
Reply: not fulfilled

Task item: Does this molecule meet the criterion AC50 cell viability < 8 µM? `Cc1nc([C@](C)(O)CO)sc1-c1cnc(N)c(O[C@H](C)c2cc(F)ccc2-n2nccn2)c1`
Reply: fulfilled

Task item: Does this molecule meet the criterion AC50 cell viability < 8 µM? `C[C@H]1O[C@H](C[C@H](O)[C@@H]1O)O[C@H]2[C@@H](O)C[C@@H](O[C@@H]2C)O[C@H]3[C@@H](O)C[C@@H](O[C@@H]3C)O[C@H]4CC[C@@]5(C)[C@H](CC[C@@H]6[C@@H]5C[C@@H](O)[C@]7(C)[C@H](CC[C@]67O)C/8=C/C(=O)OC8)C4`
Reply: fulfilled

Task item: Does this molecule meet the criterion AC50 cell viability < 8 µM? `O=C(N[C@@H](c1ccccc1)[C@@H]1CCCCN1)c1cccc(C(F)(F)F)c1Cl`
Reply: not fulfilled

Task item: Does this molecule meet the criterion AC50 cell viability < 8 µM? `CC(C)(C)OC(=O)CN(Cc1ccc(Cl)cc1)Cc1ccc([N+](=O)[O-])s1`
Reply: not fulfilled

Task item: Does this molecule meet the criterion AC50 cell viability < 8 µM? `Cc1nc2ccc(-n3ncc(C(=O)c4cc5ccccc5[nH]4)c3N)cc2[nH]1`
Reply: not fulfilled
